The compounds listed here are annotated with their pKi.
tested.target: hCRTH2 (Homo sapiens, UniProt Q9Y5Y4)
Construct: expressed in transfected cells; host or cells: HEK (human embryonic kidney) cells expressing hCRTH2
Sequence (Q9Y5Y4 1-395): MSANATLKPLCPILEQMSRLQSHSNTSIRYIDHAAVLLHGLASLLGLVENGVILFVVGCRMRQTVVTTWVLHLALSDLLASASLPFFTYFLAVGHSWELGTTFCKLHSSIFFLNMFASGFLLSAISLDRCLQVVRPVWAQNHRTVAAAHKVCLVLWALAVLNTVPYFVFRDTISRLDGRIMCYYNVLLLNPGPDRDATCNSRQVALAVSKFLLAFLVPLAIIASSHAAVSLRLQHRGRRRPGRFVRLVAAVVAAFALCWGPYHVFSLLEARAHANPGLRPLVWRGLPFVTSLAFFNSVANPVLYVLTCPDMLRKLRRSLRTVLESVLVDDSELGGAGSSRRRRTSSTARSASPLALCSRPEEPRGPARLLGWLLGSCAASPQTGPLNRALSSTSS
procedure.text: Radioligand Binding Assay B (scintillation proximity assay, [3H]-PGD2, HEK-hCRTH2 membranes)
experimental.setup: Table B, Radioligand Binding Assay B (SPA), rated A-D
pKi: −log10 of the molar value.
observation.type: pKi

1. O=C(O)CCCCc1cc2cc(C(=O)N3CC[C@H](c4ccc(F)cc4)C3)ccc2nc1-c1ccccc1 = 6.70 to 7.70
2. O=C(O)CCCCc1cc2cc(C(=O)N3CCN(c4ccc(F)cc4)CC3)ccc2nc1-c1ccc(Cl)cc1 = 7.70 to 8.68
3. CC1(C)CC(NC(=O)c2ccc3nc(-c4ccc(Cl)cc4)c(CCCCC(=O)O)cc3c2)c2ccccc2O1 (stereo not shown) = 6.70 to 7.70
4. O=C(O)CCCCc1cc2cc(C(=O)N3CCC4(CC3)OCc3ccccc34)ccc2nc1-c1ccccc1 = 7.70 to 8.68
5. O=C(O)CCCCc1cc2cc(C(=O)N3CCC4(CC3)OCc3ccccc34)ccc2nc1-c1ccc(F)cc1 = 7.70 to 8.68
6. COc1ccc(N2CCN(C(=O)c3ccc4nc(-c5ccc(Cl)cc5)c(CCCCC(=O)O)cc4c3)CC2)cc1 = 7.70 to 8.68
7. O=C(O)CCCCc1cc2cc(C(=O)N[C@@H]3CCCc4ccccc43)ccc2nc1-c1ccc(Cl)cc1 = 7.70 to 8.68

* * *

tested.target: hCRTH2 (Homo sapiens, UniProt Q9Y5Y4)
Construct: expressed in transfected cells; host or cells: HEK (human embryonic kidney) cells expressing hCRTH2
procedure.text: Radioligand Binding Assay A ([3H]PGD2 filtration binding, HEK-hCRTH2 membranes)
experimental.setup: values in text
Labelling field: enter fulfilled if recorded Ki is less than 4 nM. Enter not fulfilled if it equals or exceeds that cut-off.

1) O=C(O)CCCCc1cc2cc(C(=O)N[C@@H]3CCc4ccc(F)cc43)ccc2nc1-c1ccc(F)cc1 = not fulfilled
2) O=C(O)CCCCc1cc2cc(C(=O)N[C@H]3CCCc4ccc(F)cc43)ccc2nc1-c1ccc(F)cc1 = not fulfilled
3) O=C(O)CCCCc1cc2cc(C(=O)N[C@@H]3CCCc4ccc(F)cc43)cnc2nc1-c1ccc(F)cc1 = not fulfilled
4) O=C(O)CCCCc1cc2cc(C(=O)N[C@@H]3CCc4ccccc43)ccc2nc1-c1ccccc1 = fulfilled
5) C[C@@H](NC(=O)c1ccc2nc(-c3ccccc3)c(CCCCC(=O)O)cc2c1)c1ccc(Cl)cc1 = fulfilled
6) O=C(O)CCCCc1nc2cc(C(=O)N3CC[C@@H](c4ccccc4)C3)ccc2cc1-c1ccccc1 = fulfilled
7) O=C(O)CCCCc1cc2cc(C(=O)N[C@@H]3CCCc4cc(Cl)ccc43)cnc2nc1-c1ccc(F)cc1 = not fulfilled
